Molecular target: T1, Bfl-1, Q16548
T1 chain: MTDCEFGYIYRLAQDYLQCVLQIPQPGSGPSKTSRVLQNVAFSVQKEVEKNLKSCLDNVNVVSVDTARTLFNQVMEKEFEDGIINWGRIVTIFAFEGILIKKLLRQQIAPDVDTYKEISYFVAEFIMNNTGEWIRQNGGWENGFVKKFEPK
Experiment: peptide SPOT array, c-Myc-tagged receptor at 1 uM or 100 nM, anti-c-Myc-Cy3
reported_metric: SPOT signal as a fraction of Bim BH3's signal on the same receptor and array
The answer should be a number; do not append a unit.

The recorded SPOT signal as a fraction of Bim BH3's signal on the same receptor and array for entry AELEVECATQLRRFLDKLNFRQKLLN [PMAIP1] equals 0.17

The recorded SPOT signal as a fraction of Bim BH3's signal on the same receptor and array for entry SEIMHSFAKCDEVMGDGCLNNEHFEE [IPO5] equals 0.03

The recorded SPOT signal as a fraction of Bim BH3's signal on the same receptor and array for entry PSECETLGSNLGHNLDLLNENNILAK [ZFP90] equals 0.04

The recorded SPOT signal as a fraction of Bim BH3's signal on the same receptor and array for entry LMARPAVALHFQSIADGFKEAVRYVL [SOS2] equals 0.43

meta.source: paper PMC4072508
